# System: Avena fatua
# test-protocol: Post-emergence herbicidal activity against AVEFA
# Format: in vivo
# measurement-conditions: Avena fatua, 504 h, dosage 320 g/ha, rated about 3 weeks after treatment
property-measured: pest or weed control at 320 g/ha (%)

compound	property-measured	readout-units	result-number
C=CC1(C(=O)N[C@H]2CO[C@@H](C(=O)O)C2)CC(c2cc(F)cc(F)c2)=NO1 (relative stereo) [I-21]	pest or weed control at 320 g/ha	%	90
C=C[C@]1(C(=O)N[C@@H]2CO[C@@H](C(=O)OC)C2)CC(c2cc(F)cc(F)c2)=NO1 (mixture of isomers) [I-56]	pest or weed control at 320 g/ha	%	100
COC(=O)[C@H]1C[C@@H](NC(=O)C2(C)CC(c3cc(F)cc(F)c3)=NO2)CO1 (relative stereo) [I-01]	pest or weed control at 320 g/ha	%	100
COC(=O)C1COCC1NC(=O)C1(C)CC(c2cc(F)cc(F)c2)=NO1 (centres unmarked) [I-19]	pest or weed control at 320 g/ha	%	100
COC(=O)C1=C[C@H](NC(=O)C2(C)CC(c3cccc(F)c3)=NO2)CO1 (some centres unmarked) [I-39]	pest or weed control at 320 g/ha	%	100
COC(=O)[C@H]1C[C@H](NC(=O)[C@@]2(C)CC(c3cc(F)cc(F)c3)=NO2)CO1 (mixture of isomers) [I-55]	pest or weed control at 320 g/ha	%	90
COC(=O)C1=C[C@@H](NC(=O)C2(C)CC(c3cccc(F)c3)=NO2)CO1 (some centres unmarked) [I-46]	pest or weed control at 320 g/ha	%	100
CCOC(=O)[C@H]1C[C@@H](NC(=O)C2(C)CC(c3cccc(F)c3)=NO2)CO1 (mixture of isomers) [I-30]	pest or weed control at 320 g/ha	%	100

---

# Lookup of reported pest or weed control at 80 g/ha keyed by entry
# Test system: Stellaria media
# test-protocol: Pre-emergence herbicidal activity against STEME
# Type: in vivo
# measurement-conditions: Stellaria media, 504 h, dosage 80 g/ha
property-measured: pest or weed control at 80 g/ha (%)

compound	result-number
C=C[C@]1(C(=O)N[C@H]2CO[C@@H](C(=O)OC)C2)CC(c2cc(F)cc(F)c2)=NO1 (single isomer, unassigned) [I-12]	100
COC(=O)[C@H]1C[C@@H](NC(=O)C2(C)CC(c3cc(F)cc(F)c3)=NO2)CO1 (relative stereo) [I-01]	90
C=C[C@]1(C(=O)N[C@H]2CO[C@@H](C(=O)OCc3ccccc3)C2)CC(c2cc(F)cc(F)c2)=NO1 (mixture of isomers) [I-37]	100

---

Catalogue of pest or weed control at 320 g/ha readings, one per entry.
# Tested on: Abutilon theophrasti
# test-protocol: Post-emergence herbicidal activity against ABUTH
# Format: in vivo
# measurement-conditions: Abutilon theophrasti, 504 h, dosage 320 g/ha, rated about 3 weeks after treatment

compound	study-system	pest or weed control at 320 g/ha
C=C[C@]1(C(=O)N[C@H]2CO[C@@H](C(=O)OC)C2)CC(c2cc(F)cc(F)c2)=NO1 (single isomer, unassigned) [I-11]	Abutilon theophrasti	90%
CC(C)OC(=O)[C@H]1C[C@@H](NC(=O)C2(C)CC(c3cccc(F)c3)=NO2)CO1 (mixture of isomers)	Abutilon theophrasti	80%
COC(=O)C1COCC1NC(=O)[C@@]1(C)CC(c2cc(F)cc(F)c2)=NO1 (stereo partly shown)	Abutilon theophrasti	80%
C=C[C@]1(C(=O)N[C@H]2CO[C@@H](C(=O)OCC)C2)CC(c2cc(F)cc(F)c2)=NO1 (mixture of isomers)	Abutilon theophrasti	80%

---

# Test system: Avena fatua
# test-protocol: Post-emergence herbicidal activity against AVEFA
# Type: in vivo
# measurement-conditions: dosage 320 g/ha, rated about 3 weeks after treatment
Parameter: Post-emergence herbicidal activity against AVEFA in %. Scope: all listed entries.
property-measured: Post-emergence herbicidal activity against AVEFA in % (%)

molecule	result-number
CC1(C(=O)NC2COC(C(=O)O)C2)CC(c2cc(F)cc(F)c2)=NO1 (mixture of isomers) [I-41]	100
C=CC1(C(=O)NC2COC(C(=O)OCc3ccc(OC)cc3)C2)CC(c2cc(F)cc(F)c2)=NO1 (mixture of isomers) [I-54]	90
COC(=O)C1CC(NC(=O)C2(C)CC(c3cc(F)cc(F)c3)=NO2)CO1 (mixture of isomers) [I-48]	80
CC(C)OC(=O)C1CC(NC(=O)C2(C(C)(F)F)CC(c3cc(F)cc(F)c3)=NO2)CO1 (centres unmarked) [I-51]	100
C=CC1(C(=O)NC2COC(C(=O)OCc3cccc(F)c3)C2)CC(c2cc(F)cc(F)c2)=NO1 (mixture of isomers) [I-52]	90

---

# Test system: Veronica persica
# test-protocol: Pre-emergence herbicidal activity against VERPE
# Type: in vivo
# measurement-conditions: Veronica persica, 504 h, dosage 80 g/ha

molecule	readout-units	pest or weed control at 80 g/ha
C=C[C@]1(C(=O)N[C@H]2CO[C@@H](C(=O)OCc3ccccc3)C2)CC(c2cc(F)cc(F)c2)=NO1 (mixture of isomers) [I-37]	%	100
C=C[C@]1(C(=O)NC2COCC2C(=O)OC)CC(c2cc(F)cc(F)c2)=NO1 (some centres unmarked) [I-26]	%	100
COC(=O)[C@H]1C[C@@H](NC(=O)[C@@]2(C)CC(c3cc(F)cc(F)c3)=NO2)CO1 (mixture of isomers) [I-09]	%	90
C=C[C@]1(C(=O)N[C@H]2CO[C@@H](C(=O)OC)C2)CC(c2cc(F)cc(F)c2)=NO1 (single isomer, unassigned) [I-12]	%	100
COC(=O)C1COCC1NC(=O)[C@@]1(C)CC(c2cc(F)cc(F)c2)=NO1 (some centres unmarked) [I-28]	%	90
COC(=O)C1COCC1NC(=O)C1(OC)CC(c2cc(F)cc(F)c2)=NO1 (centres unmarked) [I-27]	%	90
CC(C)(C)OC(=O)[C@H]1C[C@@H](NC(=O)C2(C)CC(c3cccc(F)c3)=NO2)CO1 (mixture of isomers) [I-33]	%	100
COC(=O)C1COCC1NC(=O)C1(C)CC(c2cc(F)cc(F)c2)=NO1 (centres unmarked) [I-19]	%	90

---

# System: Hordeum murinum
# test-protocol: Post-emergence herbicidal activity against HORMU
# Format: in vivo
# measurement-conditions: Hordeum murinum, 504 h, dosage 320 g/ha
property-measured: pest or weed control at 320 g/ha (%)

compound	result-number
COC(=O)C1=C[C@H](NC(=O)C2(C)CC(c3cccc(F)c3)=NO2)CO1 (stereo partly shown)	100
CCOC(=O)[C@H]1C[C@@H](NC(=O)C2(C)CC(c3cccc(F)c3)=NO2)CO1 (mixture of isomers)	100
C=C[C@]1(C(=O)N[C@H]2CO[C@@H](C(=O)OC)C2)CC(c2cc(F)cc(F)c2)=NO1 (mixture of isomers) [I-10]	100
C=C[C@]1(C(=O)N[C@H]2CO[C@@H](C(=O)OC(C)(C)C)C2)CC(c2cc(F)cc(F)c2)=NO1 (mixture of isomers)	90
COC(=O)[C@H]1C[C@H](NC(=O)[C@@]2(C)CC(c3cc(F)cc(F)c3)=NO2)CO1 (mixture of isomers)	100
CCOC(=O)C1=C(NC(=O)C2(C)CC(c3cc(F)cc(F)c3)=NO2)COC1 (stereo not shown)	90
CC1(C(=O)N[C@H]2CO[C@@H](C(=O)OCc3ccccc3)C2)CC(c2cccc(F)c2)=NO1 (mixture of isomers)	100

---

# Tested on: Viola tricolor
# test-protocol: Post-emergence herbicidal activity against VIOTR
# Assay type: in vivo
# measurement-conditions: Viola tricolor, 504 h, dosage 320 g/ha, rated about 3 weeks after treatment

compound	study-system	readout-units	pest or weed control at 320 g/ha
C=C[C@]1(C(=O)N[C@H]2CO[C@@H](C(=O)OCC)C2)CC(c2cc(F)cc(F)c2)=NO1 (mixture of isomers)	Viola tricolor	%	80
COC(=O)C1=C[C@H](NC(=O)C2(C)CC(c3cccc(F)c3)=NO2)CO1 (stereo partly shown)	Viola tricolor	%	80
C=C[C@]1(C(=O)N[C@H]2CO[C@@H](C(=O)OC)C2)CC(c2cc(F)cc(F)c2)=NO1 (single isomer, unassigned) [I-11]	Viola tricolor	%	90
COC(=O)[C@H]1C[C@H](NC(=O)[C@@]2(C)CC(c3cc(F)cc(F)c3)=NO2)CO1 (mixture of isomers)	Viola tricolor	%	90
COC(=O)[C@H]1C[C@@H](NC(=O)C2(OC)CC(c3cc(C)cc(Br)c3)=NO2)CO1 (relative stereo)	Viola tricolor	%	80
COC(=O)C1COCC1NC(=O)C1(OC)CC(c2cc(Cl)cc(Cl)c2)=NO1 (stereo not shown)	Viola tricolor	%	80
C=C[C@]1(C(=O)N[C@H]2CO[C@@H](C(=O)OC)C2)CC(c2cc(F)cc(F)c2)=NO1 (mixture of isomers) [I-10]	Viola tricolor	%	80
